Target: SARS-CoV-2 NSP3 macrodomain (Mac1) (Severe acute respiratory syndrome coronavirus 2, UniProt P0DTD1)
Experiment: biochemical
Type: binding
Conditions: Single dose, concentration 200 μM
Please use TRUE for Average % competition under 50% and FALSE for everything else, ties included.

Please review the entries below; each comes with its answer.
Molecule | Cat
OCC(CC1OCCO1)Nc1ncnc2[nH]ccc12 (stereo not shown) | TRUE
C#CCC(CO)Nc1ncnc2[nH]ccc12 (stereo not shown) | TRUE

Inquiry: Report whether reported Average % competition is lower than 50% (strictly) for OCC(CC1CCCCC1)Nc1ncnc2[nH]ccc12 (stereo not shown)
Reply text: FALSE

Inquiry: Another molecule to look at: C[C@@H](O)[C@H](CO)Nc1ncnc2[nH]ccc12.O=C(O)C(F)(F)F
Reply text: FALSE

Inquiry: Another molecule to look at: O=C(O)C(F)(F)F.OC1c2ccccc2CC1Nc1ncnc2[nH]ccc12 (stereo not shown)
Reply text: TRUE

Inquiry: Another molecule to look at: O=C(O)C(F)(F)F.OC[C@@H](CCc1ccccc1)Nc1ncnc2[nH]ccc12
Reply text: TRUE

Inquiry: Another molecule to look at: OCC(COCc1ccccc1)Nc1ncnc2[nH]ccc12 (stereo not shown)
Reply text: TRUE

Inquiry: Another molecule to look at: CC(C)(C)C(O)CC(CO)Nc1ncnc2[nH]ccc12.O=C(O)C(F)(F)F (stereo not shown)
Reply text: TRUE

Inquiry: Another molecule to look at: OCC(Nc1ncnc2[nH]ccc12)C1CCc2ccccc21 (stereo not shown)
Reply text: FALSE

Inquiry: Another molecule to look at: O[C@@H]1CNCC[C@H]1Nc1ncnc2[nH]ccc12
Reply text: TRUE
